Molecular target: Steryl-sulfatase (Homo sapiens, UniProt P08842)
Sequence (P08842 whole entry): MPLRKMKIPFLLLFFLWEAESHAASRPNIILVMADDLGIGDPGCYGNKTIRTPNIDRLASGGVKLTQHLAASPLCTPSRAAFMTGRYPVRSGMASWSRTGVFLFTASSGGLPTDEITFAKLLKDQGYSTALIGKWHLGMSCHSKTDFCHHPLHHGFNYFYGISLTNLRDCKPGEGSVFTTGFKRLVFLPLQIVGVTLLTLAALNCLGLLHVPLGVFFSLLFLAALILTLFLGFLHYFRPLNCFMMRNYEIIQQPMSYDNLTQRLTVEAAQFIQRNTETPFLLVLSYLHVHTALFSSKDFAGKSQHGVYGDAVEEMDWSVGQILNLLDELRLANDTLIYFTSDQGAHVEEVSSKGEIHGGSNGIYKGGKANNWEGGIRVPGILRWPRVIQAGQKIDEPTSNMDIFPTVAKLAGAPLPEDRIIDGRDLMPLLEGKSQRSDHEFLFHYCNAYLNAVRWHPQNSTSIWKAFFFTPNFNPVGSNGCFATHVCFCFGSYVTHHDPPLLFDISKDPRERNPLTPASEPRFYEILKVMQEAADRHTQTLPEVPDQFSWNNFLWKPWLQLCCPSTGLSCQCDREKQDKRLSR
Assay: Inhibitory activity against Steroid sulfatase expressed in CHO cells
Assay type: cell-based
measured quantity: pIC50
Give bare numbers, as −log10 of the molar value.

Answered examples (3):
> print(dat)
                        structure.as.smiles  experimental.value
1  Cc1ccc(S(=O)(=O)NC(=O)N2[C@@H]3CC[C@H]2C[C@@H](OC(=O)Cc2ccccc2)C3)cc1                4.43
2  O=C(Cc1ccccc1)O[C@H]1C[C@H]2CC[C@@H](C1)N2C(=O)NC(=O)c1ccc(Cl)cc1                4.98
3  N#CC1(OC(=O)Cc2ccccc2)CCN(C(=O)NS(=O)(=O)c2ccc(Cl)cc2)CC1                4.61

Alright, here's another compound for you.
Tell me measured pIC50 for O=C(Cc1ccccc1)O[C@H]1C[C@H]2CC[C@@H](C1)N2C(=O)NS(=O)(=O)c1ccc(C(F)(F)F)cc1 please.
5.13

Taken from ChEMBL document CHEMBL1136312.
